The reported measurements were obtained from patent US20220112288A1.

# SKW3 WT vs KO anti-hKappa-FITC per entry
Molecular target: T1, human CD4 on the surface of SKW3 cells or human PBMCs (human, UniProt P01730 26-458)
T1 construct: whole, on cells; SKW3 CD4 knockout cells served as the negative cell line; also called hCD4; SKW3 WT
Assay: FACS primary screen, non-clonal hybridoma supernatant, SKW3 vs SKW3 CD4 KO cells, anti-human kappa FITC

- BINDER: "75110_12H17A (antibody, V domains shown, Tested here as non-clonal hybridoma supernatant from AlivaMab Mouse Kappa mice (detected with anti-mouse Fc and anti-human kappa)) VH: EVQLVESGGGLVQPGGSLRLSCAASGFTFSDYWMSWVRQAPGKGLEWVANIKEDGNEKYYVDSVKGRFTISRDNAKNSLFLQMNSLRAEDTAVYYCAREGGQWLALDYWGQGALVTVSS VL: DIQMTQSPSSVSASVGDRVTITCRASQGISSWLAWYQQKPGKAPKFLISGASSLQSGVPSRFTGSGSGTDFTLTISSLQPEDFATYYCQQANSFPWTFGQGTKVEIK"
  OUTPUT UNIT: "ratio"
  SKW3 WT vs KO anti-hKappa-FITC: 2
- BINDER: "75110_09G15A (antibody, V domains shown, Tested here as non-clonal hybridoma supernatant from AlivaMab Mouse Kappa mice (detected with anti-mouse Fc and anti-human kappa)) VH: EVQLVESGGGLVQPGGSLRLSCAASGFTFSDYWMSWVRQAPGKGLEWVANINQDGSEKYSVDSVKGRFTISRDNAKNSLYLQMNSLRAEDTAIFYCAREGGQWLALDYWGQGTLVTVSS VL: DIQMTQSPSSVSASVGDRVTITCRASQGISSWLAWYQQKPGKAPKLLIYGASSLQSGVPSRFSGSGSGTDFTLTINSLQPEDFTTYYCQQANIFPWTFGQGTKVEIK"
  OUTPUT UNIT: "ratio"
  SKW3 WT vs KO anti-hKappa-FITC: 2
